- measured-on: Human SARS-CoV-2_Wuhan S (SmT1) (SARS-CoV-2 (Wuhan), UniProt P0DTC2 14-1208)
- protocol-description: tandem SPR, immobilized S, orientation 1: VHH alone
// values below are reported End 1st inj (RU)
measured-endpoint: End 1st inj (RU)

{"binder": "NRCoV2-SR01 VHH (VHH) VHH: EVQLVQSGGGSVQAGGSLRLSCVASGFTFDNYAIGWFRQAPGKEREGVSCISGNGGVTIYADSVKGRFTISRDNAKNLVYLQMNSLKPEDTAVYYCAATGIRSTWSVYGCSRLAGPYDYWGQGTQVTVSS", "measured-endpoint": "End 1st inj (RU)", "result": "39.4 RU"}
{"binder": "NRCoV2-S2A4 VHH (VHH) VHH: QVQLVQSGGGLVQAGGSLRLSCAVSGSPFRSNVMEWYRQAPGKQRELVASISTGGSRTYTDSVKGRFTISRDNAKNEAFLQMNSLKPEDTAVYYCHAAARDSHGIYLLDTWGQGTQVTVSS", "measured-endpoint": "End 1st inj (RU)", "result": "11.6 RU"}
{"binder": "NRCoV2-SR04 VHH (VHH) VHH: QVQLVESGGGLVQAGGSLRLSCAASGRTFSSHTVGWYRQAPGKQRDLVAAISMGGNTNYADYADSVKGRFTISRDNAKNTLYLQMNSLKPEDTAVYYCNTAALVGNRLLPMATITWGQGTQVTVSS", "measured-endpoint": "End 1st inj (RU)", "result": "10.9 RU"}
{"binder": "NRCoV2-S2G3 VHH (VHH) VHH: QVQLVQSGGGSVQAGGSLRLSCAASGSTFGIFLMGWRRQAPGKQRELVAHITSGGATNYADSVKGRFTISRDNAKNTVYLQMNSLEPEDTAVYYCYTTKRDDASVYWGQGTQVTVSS", "measured-endpoint": "End 1st inj (RU)", "result": "59 RU"}
{"binder": "NRCoV2-20 VHH (VHH) VHH: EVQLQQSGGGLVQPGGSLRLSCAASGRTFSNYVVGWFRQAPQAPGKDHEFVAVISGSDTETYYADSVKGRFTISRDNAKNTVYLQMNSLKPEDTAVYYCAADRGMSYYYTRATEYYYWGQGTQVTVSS", "measured-endpoint": "End 1st inj (RU)", "result": "27.1 RU"}
